System: SK-MEL-2 melanoma
Experiment: NCI-60 one-dose screen, 48 h
Conditions: 10 µM unless noted
About 83,000 compounds went through this panel and 20% of them were active in at least one assay; those are over-represented in the sample as a whole. Active and inactive are the calls of the source. How the source made its calls: active means growth percent below 10; inactive means the rest.
Respond using exactly one of the listed classes: active, inactive

Field: example entries. Status: answers known.
Compound | Target under test | Label
CCCc1nn(C)c2c(=O)[nH]c(-c3cc(S(=O)(=O)N4CCN(C)CC4)ccc3OCC)nc12 | SK-MEL-2 melanoma | inactive
O=C1Nc2ccc(F)cc2/C1=C/c1nc(-c2ccc(F)cc2)n2ccccc12 | SK-MEL-2 melanoma | inactive
CN1C(=O)C(=Cc2cn(Cc3ccccc3)c3ccc(Br)cc23)C(=O)N(C)C1=O | SK-MEL-2 melanoma | inactive
O=[N+]([O-])c1ccc(N/N=C\c2ccccc2[N+](=O)[O-])nc1 | SK-MEL-2 melanoma | inactive
CC(CCC(=O)O)(NC(=O)c1ccc([N+](=O)[O-])cc1)C(=O)O (stereo not given) | SK-MEL-2 melanoma | inactive

For `CCC(CC)NCCCCCNc1cc(OC)cc2cccnc12` , what call appears in the results of this test?
inactive

For `N#Cc1ccc(NC(=O)Nc2ccc(Oc3ccc(NC(=O)Nc4ccc(C#N)cc4)cc3)cc2)cc1` , what call appears in the results of this test?
active

For `COc1ccc(/C=C2\NC(=S)NC2=O)cc1` , what call appears in the results of this test?
inactive

For `COc1cc(/C=C2\COc3ccc(O)c(O)c3C2=O)cc(OC)c1` , what call appears in the results of this test?
inactive

For CC(c1ccccn1)C(C)(O)C(C)c1ccccn1 (stereo not given) , what call appears in the results of this test?
inactive
